EXPERIMENTAL PROTOCOL: Metabolic stability in human liver microsomes
Type: in vitro ADME
ENDPOINT NAME: Metabolic Stability Study H = human (µL/min/mg)
Record the value in µL/min/mg, omitting the unit from your answer.

Example compounds with recorded Metabolic Stability Study H = human:
COMPOUND: C[C@H](NC(=O)Nc1ccc(S(=O)(=O)Cc2ccc3c(c2)CN(C)C3)cc1)c1ccccc1
MEASURED NUMBER: 71.5
--
COMPOUND: CNC(C)(C)Cc1ccc(NS(=O)(=O)c2ccc(NC(=O)N[C@@H](C)c3ccc(-c4cnccn4)c(Cl)c3Cl)cc2)cc1
MEASURED NUMBER: 47.7
--
COMPOUND: COc1cc(S(=O)(=O)Cc2ccc3c(c2)CNC3)ccc1NC(=O)NC(C)c1ccccc1.Cl (stereo not shown)
MEASURED NUMBER: 21
--
COMPOUND: COc1cc(NC(=O)N(O)C(C)c2ccccc2F)ccc1S(=O)(=O)Cc1ccc2c(c1)CN(C)C2 (stereo not shown)
MEASURED NUMBER: 94.2
--
COMPOUND: CC(NC(=O)Nc1ccc(S(=O)(=O)Cc2ccc3c(c2)CN(C2COC2)C3)cc1)c1ccccc1 (stereo not shown)
MEASURED NUMBER: 195.6
--
COMPOUND: C[C@H](NC(=O)Nc1ccc(S(=O)(=O)Cc2ccc3[nH]ccc3c2)cc1)c1cccc(Cl)c1Cl
MEASURED NUMBER: 114.9
--
COMPOUND: COc1cc(NC(=O)N(O)C(C)c2ccccc2F)ccc1S(=O)(=O)Cc1ccc2c(c1)CNC2 (stereo not shown)
MEASURED NUMBER: 23.8
--
COMPOUND: C[C@H](NC(=O)Nc1ccc(S(=O)(=O)Cc2ccc3c(c2)CNC3)cc1)c1cccc(Cl)c1Cl.Cl
MEASURED NUMBER: 16.4

In: Need Metabolic Stability Study H = human, item COc1cc(NC(=O)N(O)C(C)c2ccccc2)ccc1S(=O)(=O)Cc1ccc2c(c1)CNC2 (stereo not shown)
Out: 15.2

In: Need Metabolic Stability Study H = human, item CC(NC(=O)Nc1ccc(S(=O)(=O)Cc2ccc3c(c2)CNC3)cc1C1CC1)c1ccccc1 (stereo not shown)
Out: 116.7

In: Need Metabolic Stability Study H = human, item CC(NC(=O)Nc1ccc(S(=O)(=O)Cc2ccc3c(c2)CN(C)C3)cc1)c1cccc(Cl)c1 (stereo not shown)
Out: 169.4

In: Need Metabolic Stability Study H = human, item COc1cc(S(=O)(=O)Cc2ccc3c(c2)CN(C)C3)ccc1NC(=O)N(O)C(C)c1ccccc1 (stereo not shown)
Out: 151.1

In: Need Metabolic Stability Study H = human, item C[C@H](NC(=O)Nc1ccc(S(=O)(=O)Cc2ccc(CC(C)(C)N)cc2)cc1)c1cccc(Cl)c1Cl
Out: 19.5

In: Need Metabolic Stability Study H = human, item CC(NC(=O)Nc1ccc(S(=O)(=O)Cc2ccc3c(c2)CNC3)cc1)c1ccc(F)cc1 (stereo not shown)
Out: 18.2

In: Need Metabolic Stability Study H = human, item COc1cc(S(=O)(=O)Cc2ccc3c(c2)C(F)CNC3)ccc1NC(=O)N[C@H](C)c1cccc(Cl)c1Cl (stereo partly shown)
Out: 46.8

====

Let's look at some molecules and their measured pIC50.
SYSTEM: GHSR-1a (HEK293/GHSR1a cell line) (Homo sapiens)
Construct: expressed in transfected cells; host or cells: HEK293/GHSR1a cell line
Sequence (Q92847 whole entry): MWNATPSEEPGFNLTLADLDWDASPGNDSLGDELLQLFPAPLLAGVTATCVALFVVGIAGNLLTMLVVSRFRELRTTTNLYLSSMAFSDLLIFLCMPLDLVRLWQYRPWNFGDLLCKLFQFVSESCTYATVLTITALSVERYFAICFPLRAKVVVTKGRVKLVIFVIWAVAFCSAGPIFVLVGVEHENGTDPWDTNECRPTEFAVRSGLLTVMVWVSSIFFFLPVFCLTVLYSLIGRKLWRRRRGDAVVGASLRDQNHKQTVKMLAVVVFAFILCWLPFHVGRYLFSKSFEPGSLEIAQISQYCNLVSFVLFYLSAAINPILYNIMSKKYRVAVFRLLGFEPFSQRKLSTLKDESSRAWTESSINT
EXPERIMENTAL PROTOCOL: Ghrelin antagonist potency (IC50) with calcium FLIPR assay, ghrelin 10 nM
Format: cell-based
STUDY CONDITIONS: ghrelin antagonist potency, read-out: IC50 (Activity)
Answer as the number alone; pIC50 is minus log10 of concentration in mol/L.

MOLECULE: COC(=O)c1ccc(NS(=O)(=O)c2ccc(NC(=O)N[C@@H](C)c3cccc(Cl)c3Cl)cc2)cc1
pIC50: 5.54
//
MOLECULE: C[C@H](NC(=O)Nc1ccc(S(=O)(=O)Cc2ccc3c(c2)NCC3)cc1)c1cccc(Cl)c1Cl
pIC50: 5.56

In: Need pIC50, item C[C@H](NC(=O)Nc1ccc(S(=O)(=O)Cc2ccc(CO)cc2)cc1)c1cccc(Cl)c1Cl
Out: 6.55

In: Need pIC50, item C[C@H](NC(=O)Nc1ccc(S(=O)(=O)Nc2ccc3c(c2)CCNC3)cc1)c1ccc(-c2cnccn2)c(Cl)c1Cl
Out: 7.14

In: Need pIC50, item CN(C)C(C)(C)Cc1ccc(NS(=O)(=O)c2ccc(NC(=O)NCc3ccccc3)cc2)cc1
Out: 6.60

In: Need pIC50, item CC(c1ccc2c(c1)CCNC2)S(=O)(=O)c1ccc(NC(=O)N[C@@H](C)c2cccc(Cl)c2Cl)cc1.Cl (stereo partly shown)
Out: 7.65
